system: pigweed (Amaranthus retroflexus); experiment: Test B pre-/postemergence plant response; type: in vivo; conditions: 31 g ai/ha, postemergence; scale 0 to 100, 0 is no effect, 100 is complete control
Each item that follows carries a reported Plant response rating, Pigweed.
Answer using only a numeral; do not append any unit.

Study these solved cases before continuing.
COCCOCCn1c(-c2ccccc2)ncc(C(=O)C2=C(O)CCCC2=O)c1=O [Compound 91]; 100
O=C1CCCC(O)=C1C(=O)c1cnc(-c2cccc(Br)c2)n(-c2ccccc2)c1=O [Compound 69]; 98
O=C1CCCC(O)=C1C(=O)c1cnc(-c2ccsc2)n(CC2CCCO2)c1=O (centres unmarked) [Compound 98]; 100

Request: For the molecule shown here, O=C1CCCC(O)=C1C(=O)c1cnc(-c2cccs2)n(-c2ccccc2)c1=O [Compound 66] , give the reported Plant response rating, Pigweed.
Response: 98

Request: Also need CC(C)Cc1ncc(C(=O)C2=C(O)CCCC2=O)c(=O)n1-c1ccccc1 [Compound 68] , thanks.
Response: 85

Request: Also need CCn1c(-c2ccccc2)ncc(C(=O)C2=C(O)CCCC2=O)c1=O [Compound 49] , thanks.
Response: 80

Request: Also need Cc1ccc(Cl)cc1-n1c(-c2ccccc2)ncc(C(=O)C2=C(O)CCCC2=O)c1=O [Compound 52] , thanks.
Response: 85

Request: Also need COCCn1c(-c2ccco2)ncc(C(=O)C2=C(O)CCCC2=O)c1=O [Compound 111] , thanks.
Response: 95
